- Experiment Notes: Plasma concentration after intraduodenal administration (Example 8)
- Assay type: in vivo, Sprague-Dawley rats
- Applied Conditions: male, Sprague-Dawley, rat, plasma, other: intraduodenal, 30 mg/kg, 30 mg/kg intraduodenal, rats, 5 min. from administration (time point 0.083); read-out: amount of absorption by the small intestine
Outcome Measure: concentration at 5 min
A complete answer gives the number followed by the unit.

Prompt: Requested read-out: concentration at 5 min. Entry: CO[C@@H]1[C@H](OC(=O)/C=C/C=C/C=C/C=C/C(=O)O)CC[C@]2(CO2)[C@H]1[C@@]1(C)O[C@@H]1CC=C(C)C [fumagillin]
Completion: 3000 ng/mL
